Provenance of the data: patent US20170342144A1

# EXPERIMENTAL TARGET: T1, human TGFβ3 (human, UniProt P10600 301-412)
# T1 sequence: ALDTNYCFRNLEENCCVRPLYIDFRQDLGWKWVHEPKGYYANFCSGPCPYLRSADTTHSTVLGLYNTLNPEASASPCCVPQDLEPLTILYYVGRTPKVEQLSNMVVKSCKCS
# PROCEDURE TEXT: Biacore off-rate vs wt GC1008, 50 nM
REPORTED PROPERTY: kd var/kd wt
Please respond with just the number, no unit label.

Ask | Recorded kd var/kd wt of S31P (antibody, V domains shown, GC1008 IgG4 variant) VH: QVQLVQSGAEVKKPGSSVKVSCKASGYTFSPNVISWVRQAPGQGLEWMGGVIPIVDIANYAQRFKGRVTITADESTSTTYMELSSLRSEDTAVYYCASTLGLVLDAMDYWGQGTLVTVSS VL: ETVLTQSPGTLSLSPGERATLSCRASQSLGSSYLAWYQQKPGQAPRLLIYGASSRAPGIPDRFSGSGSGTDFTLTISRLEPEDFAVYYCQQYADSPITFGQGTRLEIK , please.
Reply | 1.2
